# subject-of-test: rat striatal D1 receptors (Rattus norvegicus, UniProt P18901)
# Construct: increase cAMP production in rat striatum and C-6-mD1 cells
# Sequence (P18901 whole entry): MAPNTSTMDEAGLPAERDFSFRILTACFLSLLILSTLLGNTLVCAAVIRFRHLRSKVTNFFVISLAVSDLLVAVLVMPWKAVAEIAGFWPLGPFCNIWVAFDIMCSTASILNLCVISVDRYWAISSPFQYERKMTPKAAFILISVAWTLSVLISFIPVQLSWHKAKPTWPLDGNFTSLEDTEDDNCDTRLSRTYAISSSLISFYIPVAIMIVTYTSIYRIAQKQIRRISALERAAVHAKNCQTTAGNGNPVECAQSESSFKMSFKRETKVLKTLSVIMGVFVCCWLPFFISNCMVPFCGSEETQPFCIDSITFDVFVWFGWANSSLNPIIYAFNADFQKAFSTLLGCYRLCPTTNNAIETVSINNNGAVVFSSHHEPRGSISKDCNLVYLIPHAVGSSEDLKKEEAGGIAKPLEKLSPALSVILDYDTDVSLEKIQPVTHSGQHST
# assay-protocol: binding affinity to D1 receptors, competition with SCH23390
# run-parameters: rat striatal D1 receptors; read-out: K0.5 (affinity)
metric: Ki

The molecule Br.Oc1ccc2c(c1O)Oc1cccc3c1C2CNC3 (racemic) [dinoxyline, hydrobromide] , when measured on rat striatal D1 receptors (Rattus norvegicus, UniProt P18901), yielded Ki of < 5 nM
